Experiment: NCI Yeast Anticancer Drug Screen. Data for the cln2 rad14 strain (AID 165);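 further: 0% = growth equal to vehicle treated cultures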
Details: S. cerevisiae cln2 rad14 strain, at 50.0 µM, stronger effect = higher value
The panel holds about 79,000 compounds, 15% with a hit somewhere; the sample as a whole holds those more often.
measured_parameter: growth inhibition (%)
One number for each entry, in %.

Example cases with answers are listed next.
compound	growth inhibition (%)
CCN(CC)CC(O)CNc1ccc(C)c2sc3ccccc3c(=O)c12 (stereo not given)	99.5
CC1OC(OC2C(OC3CCC4(C)C(CCC5(C)C4CC=C4C6CC(C)(C)CCC6(CO)C(O)CC45C)C3(C)C)OC(C(=O)O)C(OC3OC(COC4OC(CO)C(O)C(O)C4O)C(O)C(O)C3O)C2O)C(O)C(O)C1O (stereo not given)	92.5
CCOC(=O)c1c(Cl)c(CC)c(N=[N+]=[N-])n2c1nc1ccccc12	69.6
C=C1C(=O)O[C@H]2[C@H](OC(C)=O)[C@@H](C)CCC/C(C)=C/CC[C@@]3(C)O[C@@H]3C[C@@H]12	91.1
CCOC(=O)CNC(=O)Sc1ccc(C(C)(C)C)cc1C	75.7
C1=NCCN=Cc2ccccc2NCCNc2ccccc21	53.5

Value sought for every listed compound: growth inhibition.
1. O=c1ccccn1CCc1cccc2cc(O)ccc12
2. COC1C=COC2(C)Oc3c(C)c(O)c4c(O)c(c(C5SCCS5)c(O)c4c3C2=O)NC(=O)C(C)=C/C=C\C(C)C2OC(C)(C)OC(C2C)C(C)C(OC(C)=O)C1C (stereo not given)
3. COc1ccc(C2SCC(=O)N2c2nncs2)cc1 (stereo not given)
4. Cn1c2c(c3ccccc31)CCN1C[C@@H]3CCCC[C@H]3C[C@@H]21
5. Nc1ncnc2c1c(-c1ccccc1)cn2-c1ccc(Cl)cc1
6. C=CCOc1ccc(N=NC(C#N)C#N)cc1

-12.3
90.3
-8.95
-58.1
42.8
58

Hello, I would appreciate it if you could give growth inhibition for each entry below.
1. CS(=O)(=O)OCCCN(CCCOS(C)(=O)=O)c1ccc(C=Nc2ccc(-c3csc(COc4ccc(Br)cc4Br)n3)cc2)cc1
2. CCCCCCCCCCCCCCCCNC(=S)N/C=C(/C#N)C(=O)OC

1. 85.8
2. 98.8

For each entry beneath this line, provide reported growth inhibition.
1. COc1ccc(C(=O)C(CN2CCCC2)CN2CCCC2)cc1
2. CN(C)C(=S)/N=c1\ss/c(=N/C(=S)N(C)C)n1-c1ccc([N+](=O)[O-])cc1
3. CC(=O)O[C@]1(C(C)=O)CC[C@H]2[C@@H]3C[C@H](C)C4=CC(=O)NCC[C@]4(C)[C@H]3CC[C@@]21C
4. O=C1c2c(O)ccc(O)c2C(=O)c2c(O)ccc(O)c21
5. CN(C)CCC1(C2=CCCC2)CC/C(=C\c2ccccc2Cl)C1=O (stereo not given)

1. 7.4
2. 91.3
3. 90.1
4. 41
5. 73

Could you please provide reported growth inhibition for "Oc1cc2ccccc2c2ccccc12" ? Thanks! 98.5

----------
Test: NCI Yeast Anticancer Drug Screen. Data for the bub3 strain (AID 167)
Settings: S. cerevisiae bub3 mutant strain, at 50.0 µM, stronger effect = higher value
About 79,000 compounds went through this panel and 15% of them were active in at least one assay; those are over-represented in the sample as a whole.
Classification by growth inhibition | ranges: low bracket = under 70%, middle bracket = from 70% up to 90%, high bracket = 90% and over

Known results for compounds:
> print(dat)
                                   compound  qualitative.label
1  O=[N+]([O-])c1cc(CN(CCO)CCO)c(O)c2ncccc12       high bracket
2          O=C(O)/C=C/c1ccc([N+](=O)[O-])o1     middle bracket

Hi there! Could you help me figure out the category for "COc1cccnc1/C=N/NC(N)=S" please? middle bracket

In plain terms, what class is "Nc1nccc(NCCCCCCNc2ccnc(N)n2)n1" ? low bracket

Category of "Cc1ccc(S(=O)(=O)NC(=O)CC2CCCCC2)cc1" , please. middle bracket
